Data credit: patent US20100144733A1

target-under-test: CHO-CFTR cell line (Homo sapiens, UniProt P13569)
Construct: expressed in transfected cells; host or cells: CHO (CHO-CFTR cell line)
protocol-description: CHO-CFTR assay (FLIPR assay, same conditions as the T84 assay)
Format: cell-based
setup-conditions: imidazole and triazole-containing compounds
attribute-measured: IC50

Worked cases, IC50 given:
>>> reported_result("CCN(Cc1cccc(OC(F)(F)F)c1)C(=O)c1ncn(-c2cc(Cl)c(O)c(Cl)c2)n1 [89i]")
"24.6 µM"
>>> reported_result("C=CCN(Cc1ccc(Oc2ccccc2)cc1)C(=O)c1ncn(-c2cc(Cl)c(O)c(Cl)c2)n1 [100i]")
"9.09 µM"
>>> reported_result("O=C(c1cn(-c2cc(Br)c(O)c(Br)c2)cn1)N1CCC(Cc2ccccc2)CC1 [19i]")
"7.5 µM"

IC50 reading for CCN(Cc1ccc(C(C)(C)C)cc1)C(=O)c1ncn(-c2cc(Cl)c(O)c(Cl)c2)n1 [88i] : 6.58 µM

IC50 reading for CC(C)c1ccc(CN(Cc2ccccc2)C(=O)c2ncn(-c3cc(Cl)c(O)c(Cl)c3)n2)cc1 [81i] : 16.5 µM

IC50 reading for Oc1c(Cl)cc(-n2cnc(C(O)(c3cc(F)cc(F)c3)c3cc(F)cc(F)c3)n2)cc1Cl [52i] : 7.8 µM

* * *

Collected IC50 values appear next to each entry.
target-under-test: CFTR (Homo sapiens, UniProt P13569)
Construct: endogenous in cells; host or cells: T84 human colonic cells (ECACC)
Sequence (P13569 whole entry): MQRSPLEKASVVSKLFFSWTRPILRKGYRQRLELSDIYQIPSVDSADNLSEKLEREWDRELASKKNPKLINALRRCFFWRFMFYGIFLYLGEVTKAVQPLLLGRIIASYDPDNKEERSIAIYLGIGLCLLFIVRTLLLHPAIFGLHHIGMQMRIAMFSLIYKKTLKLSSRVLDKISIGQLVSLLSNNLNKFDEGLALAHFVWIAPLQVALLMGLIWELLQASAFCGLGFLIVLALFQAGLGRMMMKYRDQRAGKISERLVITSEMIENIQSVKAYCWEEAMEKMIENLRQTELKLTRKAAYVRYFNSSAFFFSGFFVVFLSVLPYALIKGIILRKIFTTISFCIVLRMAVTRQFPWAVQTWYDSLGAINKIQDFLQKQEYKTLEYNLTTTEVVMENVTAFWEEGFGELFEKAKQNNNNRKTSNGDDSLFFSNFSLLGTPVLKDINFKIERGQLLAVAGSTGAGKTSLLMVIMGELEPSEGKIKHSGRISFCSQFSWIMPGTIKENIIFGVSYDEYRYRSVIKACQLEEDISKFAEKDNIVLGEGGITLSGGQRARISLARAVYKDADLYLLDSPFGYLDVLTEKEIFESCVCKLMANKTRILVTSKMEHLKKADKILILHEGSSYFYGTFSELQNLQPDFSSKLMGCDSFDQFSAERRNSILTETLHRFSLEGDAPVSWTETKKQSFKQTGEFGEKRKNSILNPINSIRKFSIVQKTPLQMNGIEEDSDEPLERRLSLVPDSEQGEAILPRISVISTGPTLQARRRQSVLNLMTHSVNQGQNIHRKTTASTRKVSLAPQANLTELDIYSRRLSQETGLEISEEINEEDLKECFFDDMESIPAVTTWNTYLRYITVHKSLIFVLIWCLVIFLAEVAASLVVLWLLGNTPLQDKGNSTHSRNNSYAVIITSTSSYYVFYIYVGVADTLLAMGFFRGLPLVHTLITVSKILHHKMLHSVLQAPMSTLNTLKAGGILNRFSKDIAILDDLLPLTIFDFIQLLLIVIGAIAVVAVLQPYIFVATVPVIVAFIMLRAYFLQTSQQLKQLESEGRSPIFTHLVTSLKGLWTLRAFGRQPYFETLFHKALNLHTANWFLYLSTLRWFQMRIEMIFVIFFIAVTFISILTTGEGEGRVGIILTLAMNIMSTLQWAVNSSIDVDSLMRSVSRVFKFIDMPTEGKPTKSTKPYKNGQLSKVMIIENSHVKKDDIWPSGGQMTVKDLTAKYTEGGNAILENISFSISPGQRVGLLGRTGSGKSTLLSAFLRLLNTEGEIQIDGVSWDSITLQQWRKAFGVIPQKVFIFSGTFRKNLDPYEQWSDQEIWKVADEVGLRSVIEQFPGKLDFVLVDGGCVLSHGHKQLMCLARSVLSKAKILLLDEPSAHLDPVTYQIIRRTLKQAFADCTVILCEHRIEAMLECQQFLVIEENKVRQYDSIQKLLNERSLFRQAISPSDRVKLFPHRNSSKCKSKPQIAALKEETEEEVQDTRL
protocol-description: T84 assay (FLIPR membrane potential dye, forskolin/IBMX-stimulated CFTR channel activity)
Format: cell-based
setup-conditions: isoxazole-containing compounds (Table 10, 10′, 11, 11′), read-out: IC50
API: value field is a number in µM; no unit string.

Worked cases, IC50 given:
>>> reported_result("CN(Cc1ccc(C(F)(F)F)cc1)C(=O)c1cc(-c2cc(Cl)c(O)c(Cl)c2)on1")
10.6
>>> reported_result("CN(Cc1ccccc1)C(=O)c1cc(-c2cc(Br)c(O)c(Br)c2)on1")
7.65

Please turn your attention to the following entry.
Form field, IC50 with CFTR (Homo sapiens, UniProt P13569), item O=C(c1cc(-c2cc(Br)c(O)c(Br)c2)on1)N1CCN(c2ccc(Cl)c(Cl)c2)CC1 [10g] : 7.4

* * *

Collected IC50 values appear next to each entry.
target-under-test: CFTR (Homo sapiens)
Construct: endogenous in cells; host or cells: T84 human colonic cells (ECACC)
protocol-description: T84 assay (FLIPR membrane potential dye, forskolin/IBMX-stimulated CFTR channel activity)
Assay type: cell-based
setup-conditions: imidazole and triazole-containing compounds (Tables 13, 14, 14′), read-out: IC50 (μM) (T84 assay)
API: value field is a number in µM; no unit string.

>>> reported_result("O=C(NCc1ccc(Oc2ccc(OCc3ccccc3)c(Cl)c2)cc1)c1ncn(-c2cc(Cl)c(O)c(Cl)c2)n1 [72i]")
7.6
>>> reported_result("O=C(NCc1cc(C(F)(F)F)ccc1F)c1ncn(-c2cc(Cl)c(O)c(Cl)c2)n1 [40i]")
2.86
>>> reported_result("CON(Cc1cccc(OC(F)(F)F)c1)C(=O)c1ncn(-c2cc(Cl)c(O)c(Cl)c2)n1 [125i]")
3.44
>>> reported_result("O=C(NCc1ccc(Oc2cc(F)c(F)c(F)c2)cc1)c1ncn(-c2cc(Cl)c(O)c(Cl)c2)n1 [65i]")
5.83
>>> reported_result("CC(C)(C)c1ccc(CN(CCOCCOCCOCCOCCOCCOCc2ccccc2)C(=O)c2ncn(-c3cc(Cl)c(O)c(Cl)c3)n2)cc1 [116i]")
2.8

Form field, IC50 with CFTR (Homo sapiens), item CC(C)(C)c1ccc(C(O)(c2ccc(C(C)(C)C)cc2)c2ncn(-c3cc(Cl)c(O)c(Cl)c3)n2)cc1 [58i] : 11.3

* * *

target-under-test: CHO-CFTR cell line (Homo sapiens)
Construct: expressed in transfected cells; host or cells: CHO (CHO-CFTR cell line)
protocol-description: CHO-CFTR assay (FLIPR assay, same conditions as the T84 assay)
Assay type: cell-based
setup-conditions: imidazole and triazole-containing compounds
Label true (1) when IC50 < 10 µM; otherwise false (0).

Is the reported IC50 for O=C(NCc1ccc(Oc2ccccc2)cc1)c1ncn(-c2cc(Cl)c(O)c(Cl)c2)n1 [49i] strictly below 10 µM?
true (1)

Is the reported IC50 for CCON(Cc1ccc(Oc2ccccc2)cc1)C(=O)c1ncn(-c2cc(Cl)c(O)c(Cl)c2)n1 [130i] strictly below 10 µM?
true (1)

Is the reported IC50 for CC(C)c1ccc(CN(Cc2cccnc2)C(=O)c2ncn(-c3cc(Cl)c(O)c(Cl)c3)n2)cc1 [92i] strictly below 10 µM?
true (1)

Is the reported IC50 for CC(C)(C)CCN(Cc1ccc(Oc2ccccc2)cc1)C(=O)c1ncn(-c2cc(Cl)c(O)c(Cl)c2)n1 [105i] strictly below 10 µM?
false (0)

Is the reported IC50 for CC(C)(C)C(=O)C(Cc1cccc(C(F)(F)F)c1)NC(=O)c1ncn(-c2cc(Cl)c(O)c(Cl)c2)n1 (centres unmarked) [132i] strictly below 10 µM?
false (0)

Is the reported IC50 for O=C(NCc1cccc(OC(F)(F)F)c1)c1ncn(-c2cc(Cl)c(O)c(Cl)c2)n1 strictly below 10 µM?
true (1)

Is the reported IC50 for Oc1c(Cl)cc(-n2cnc(C(O)(Cc3ccc(F)cc3)Cc3ccc(F)cc3)n2)cc1Cl [56i] strictly below 10 µM?
false (0)

Is the reported IC50 for O=C(NCc1ccc(Oc2ccc(CO)cc2)cc1)c1ncn(-c2cc(Cl)c(O)c(Cl)c2)n1 [76i] strictly below 10 µM?
false (0)
